# System: Escherichia coli
# details: Concentration 32 ug.mL-1;; ASSAY_TEST Inhibition of Bacterial Growth; detection method Absorption (OD600); MEDIA CAMHB; plate type 384well; NBS; CORNING #3640; time 18 hr
# Description: Antibacterial activity against Escherichia coli ATCC 25922 (CO-ADD:GN_001); MIC in CAMBH media using NBS plates, by OD(600)
Entries with a potency or affinity are not part of this list.
valueKind: Inhibition (%)

# molecule, experimentalTarget, valueKind, readoutUnits, valueMeasured
data = [
    ("COC(=O)c1ccc(NC(=O)CSc2nc3ccccc3n3c(C(C)C)nnc23)cc1", "Escherichia coli", "Inhibition", "%", -0.7),
    ("CCCCOc1ccc(-c2cc3c4nnc(SCC(=O)Nc5ccccc5Cl)n4ccn3n2)cc1", "Escherichia coli", "Inhibition", "%", -3.41),
    ("CC(C)c1ccc(NC(=O)Cn2nc3ccc(SCc4ccc(Cl)cc4)nn3c2=O)cc1", "Escherichia coli", "Inhibition", "%", -6.33),
    ("COc1ccc(NC(=O)Cn2nc3c4cc(-c5ccc(C)cc5)nn4ccn3c2=O)cc1", "Escherichia coli", "Inhibition", "%", -1.43),
    ("COc1ccc(-c2cc3c4nn(CC(=O)N5CCCc6ccccc65)c(=O)n4ccn3n2)cc1", "Escherichia coli", "Inhibition", "%", 1.46),
    ("COc1cccc(-n2ccn3c(SCC(=O)c4ccc(Br)cc4)nnc3c2=O)c1", "Escherichia coli", "Inhibition", "%", 0.58),
    ("COc1cccc(-n2ccn3c(SCC(=O)c4ccc(C)cc4C)nnc3c2=O)c1", "Escherichia coli", "Inhibition", "%", -2.43),
    ("O=c1c2sccc2n2c(=O)n(Cc3ccccc3Cl)nc2n1CCc1ccccc1", "Escherichia coli", "Inhibition", "%", 0.77),
    ("Cc1ccc(CN(c2cc(C)cc(C)c2)S(=O)(=O)c2cccn3c(C)nnc23)cc1", "Escherichia coli", "Inhibition", "%", -7.16),
    ("CCOC(=O)c1ccc(NC(=O)Cn2nc3ccc(S(=O)(=O)C(C)(C)C)nn3c2=O)cc1", "Escherichia coli", "Inhibition", "%", -4.95),
    ("CCOc1ccc(NC(=O)Cn2nc3ccc(-c4ccc(C)c(C)c4)nn3c2=O)cc1", "Escherichia coli", "Inhibition", "%", -6.73),
    ("COc1cccc(Oc2nccn3c(=O)n(CC(=O)Nc4ccc(OC)c(OC)c4)nc23)c1", "Escherichia coli", "Inhibition", "%", -2.07),
    ("CC(C)c1nnc2c(=O)n(CC(=O)Nc3ccc(Cl)c(Cl)c3)c3ccccc3n12", "Escherichia coli", "Inhibition", "%", 5.48),
    ("O=C(Cn1nc2ccc(-c3ccccc3)nn2c1=O)Nc1ccc(F)cc1", "Escherichia coli", "Inhibition", "%", -4.86),
    ("CCCCc1ccc(NC(=O)Cn2c(=O)c3nnc(CCC)n3c3ccccc32)cc1", "Escherichia coli", "Inhibition", "%", -1.42),
    ("COc1ccc(Cl)cc1NC(=O)Cn1nc2c3cc(-c4ccc(C)c(C)c4)nn3ccn2c1=O", "Escherichia coli", "Inhibition", "%", -23.9),
    ("Cc1c(Cl)cccc1NC(=O)Cn1nc2c3c4c(sc3ncn2c1=O)CCCCC4", "Escherichia coli", "Inhibition", "%", -0.38),
    ("CC(C)CCn1c(=O)c2sccc2n2c(=O)n(CC(=O)NC(C)C)nc12", "Escherichia coli", "Inhibition", "%", -10.46),
    ("CCC(Sc1nnc2c(=O)n(-c3ccccc3)ccn12)C(=O)Nc1cc(F)ccc1F (stereo not given)", "Escherichia coli", "Inhibition", "%", -6.05),
    ("CC1CCN(C(=O)Cn2nc3n(Cc4ccco4)c(=O)c4sccc4n3c2=O)CC1", "Escherichia coli", "Inhibition", "%", -2.27),
]

----------
Inhibition values for the compounds below.
# Test system: Escherichia coli
# details: Concentration 32 ug.mL-1;; ASSAY_TEST Inhibition of Bacterial Growth; detection method Absorption (OD600); MEDIA CAMHB; plate type 384well; NBS; CORNING #3640; time 18 hr
Results with a measured potency or affinity are listed apart.

# compound, readoutUnits, Inhibition
data = [
    ("O=c1c2sccc2n2c(=O)n(Cc3cccc(F)c3)nc2n1Cc1cccs1", "%", -12.16),
    ("COc1cccc(-n2ccn3c(SCC(=O)c4cc(C)c(C)cc4C)nnc3c2=O)c1", "%", -4.7),
    ("CSc1cccc(NC(=O)Cn2nc3c4c5c(sc4ncn3c2=O)CCCC5)c1", "%", -9.58),
    ("O=C(CSc1nc2ccccc2n2cnnc12)Nc1cc(C(F)(F)F)ccc1Cl", "%", -4.72),
    ("CSc1ccc(CNC(=O)Cn2nc3c(N4CC(C)CC(C)C4)nccn3c2=O)cc1 (stereo not given)", "%", 0.68),
    ("Cc1ccc(-c2cc3c4nnc(CCC(=O)NCc5ccc(F)c(Cl)c5)n4ccn3n2)cc1C", "%", -0.93),
    ("CC(C)c1nnc2c(=O)n(CC(=O)Nc3ccc(F)cc3)c3ccccc3n12", "%", 5.44),
    ("O=C(CSc1nc2ccccc2n2c(-c3ccccc3)nnc12)Nc1ccc(Br)cc1", "%", -0.27),
    ("COc1cccc(Oc2nccn3c(=O)n(CC(=O)Nc4cc(C)c(Cl)cc4OC)nc23)c1", "%", -0.57),
    ("O=c1c2nn(Cc3cccc(Cl)c3)c(=O)n2ccn1-c1ccccc1", "%", -5.32),
]

----------
# System: Escherichia coli
# details: Concentration 32 ug.mL-1;; ASSAY_TEST Inhibition of Bacterial Growth; detection method Absorption (OD600); MEDIA CAMHB; plate type 384well; NBS; CORNING #3640; time 18 hr
Entries with a potency or affinity are not part of this list.
valueKind: Inhibition (%)

# structureNotation, valueMeasured
rows = [
    ("Cc1nnc2c(=O)n(CC(=O)Nc3ccc(Br)cc3)c3ccccc3n12", 5.5),
    ("O=c1c2nnc(SCc3cccc(C(F)(F)F)c3)n2ccn1-c1ccc(Br)cc1", -4.81),
    ("COc1cc(NC(=O)CSc2nnc3c(=O)n(-c4cccc(OC)c4)ccn23)cc(OC)c1", -9.3),
    ("CCCn1c(=O)c2sccc2n2c(=O)n(CC(=O)c3ccccc3)nc12", 2.71),
    ("COc1ccccc1-n1ccn2c(SCc3ccc(C)cc3)nnc2c1=O", -10.18),
]

----------
# Tested on: Escherichia coli
# details: Concentration 32 ug.mL-1;; ASSAY_TEST Inhibition of Bacterial Growth; detection method Absorption (OD600); MEDIA CAMHB; plate type 384well; NBS; CORNING #3640; time 18 hr
Entries with a potency or affinity are not part of this list.

# compound, experimentalTarget, Inhibition (%)
records = [
    ("Cc1ccc(NC(=O)CSc2nnc3n(CC4CCCO4)c(=O)c4sccc4n23)cc1F (stereo not given)", "Escherichia coli", -6.16),
    ("CCc1nnc2c(=O)n(CC(=O)Nc3ccc(C(C)C)cc3)c3ccccc3n12", "Escherichia coli", 0.11),
    ("Cc1ccc(-c2ccc3nnc(CCC(=O)NCc4cccc(Br)c4)n3n2)cc1C", "Escherichia coli", -5.02),
    ("CCc1nnc2c(S(=O)(=O)N(Cc3cc(F)cc(F)c3)c3ccccc3)cccn12", "Escherichia coli", -4.8),
    ("CCc1ccc(N(Cc2ccccc2F)S(=O)(=O)c2cccn3c(C)nnc23)cc1", "Escherichia coli", -1.05),
    ("CCc1nnc2ccc(S(=O)(=O)N(Cc3cccc(F)c3)c3ccc(OC)cc3)cn12", "Escherichia coli", -21.14),
    ("COc1ccc(NC(=O)Cn2nc3c(N4CCCC4)nccn3c2=O)cc1", "Escherichia coli", 5.65),
    ("COc1cccc(Sc2nc3ccccc3n3c(=O)n(CC(=O)Nc4c(C)cc(C)cc4C)nc23)c1", "Escherichia coli", -6.13),
    ("COc1ccc(-c2cc3c4nnc(SCC(=O)NCc5cccc(OC)c5OC)n4ccn3n2)cc1", "Escherichia coli", -5.71),
    ("N#CCSc1nnc2c(=O)n(-c3ccccc3)ccn12", "Escherichia coli", 0.91),
    ("COc1ccc(NC(=O)CSc2nc3ccccc3n3c(C(C)C)nnc23)cc1Cl", "Escherichia coli", -5.08),
    ("COc1ccc(N2CCN(C(=O)Cn3nc4c(Sc5cccc(C)c5)nccn4c3=O)CC2)cc1", "Escherichia coli", -16.62),
    ("O=c1n(Cc2ccc3c(c2)OCO3)nc2ccc(-c3ccccc3)nn12", "Escherichia coli", -0.49),
    ("Cc1ccccc1CSc1nnc2c(=O)n(-c3ccc(Br)cc3)ccn12", "Escherichia coli", -8.83),
    ("N#Cc1ccc(NC(=O)Cn2nc3c(SC4CCCCC4)nccn3c2=O)cc1", "Escherichia coli", -8.54),
    ("COc1ccc(NC(=O)Cn2nc3c(Oc4ccc(C)cc4)nccn3c2=O)cc1Cl", "Escherichia coli", -3.22),
    ("Cc1ccc(-c2ccc3nn(Cc4ccc5c(c4)OCO5)c(=O)n3n2)cc1C", "Escherichia coli", -8.33),
    ("COc1ccc(NC(=O)CSc2nnc3c(=O)n(-c4ccc(Br)cc4)ccn23)cc1", "Escherichia coli", 2.74),
    ("Cc1ccc(CNC(=O)Cn2nc3c(N4CCN(c5ccccc5C)CC4)nccn3c2=O)cc1", "Escherichia coli", -8.18),
    ("Cc1ccc(Oc2nccn3c(=O)n(CC(=O)NCCC4=CCCCC4)nc23)cc1", "Escherichia coli", -4.1),
    ("COC(=O)c1ccc(NC(=O)Cn2nc3c(Oc4ccccc4C)nccn3c2=O)cc1", "Escherichia coli", 1.22),
    ("N#Cc1cccc(NC(=O)CSc2nnc3c4cc(-c5ccccc5)nn4ccn23)c1", "Escherichia coli", -3.47),
    ("COc1ccc(NC(=O)Cn2nc3c(Sc4cccc(F)c4)nccn3c2=O)cc1Cl", "Escherichia coli", -7.48),
    ("Cc1ccc(-c2cc3c4nnc(CCC(=O)NCCCc5ccccc5)n4ccn3n2)cc1C", "Escherichia coli", 1.28),
    ("COc1ccccc1Cn1c(=O)c2sccc2n2c(=O)n(Cc3c(F)cccc3Cl)nc12", "Escherichia coli", 0.18),
    ("Cc1nnc2c(S(=O)(=O)N(Cc3cc(F)cc(F)c3)c3cccc(F)c3)cccn12", "Escherichia coli", -6.31),
    ("CC(C)CCNC(=O)Cn1nc2n(Cc3cccs3)c(=O)c3sccc3n2c1=O", "Escherichia coli", -5.47),
    ("COc1ccc(NC(=O)Cn2nc3c(Sc4ccccc4)nccn3c2=O)c(OC)c1", "Escherichia coli", -9.08),
    ("O=C(Cn1nc2c3c4c(sc3ncn2c1=O)CCCC4)Nc1ccc2c(c1)OCO2", "Escherichia coli", -3.47),
    ("Cc1ccc(Oc2nccn3c(=O)n(CC(=O)Nc4ccc(C)cc4Br)nc23)cc1", "Escherichia coli", -2.42),
    ("Cc1ccc(Cl)cc1NC(=O)Cn1c(=O)c2nnc(C(C)C)n2c2ccccc21", "Escherichia coli", -2.02),
    ("O=C(Cn1nc2c(N3CCOCC3)nccn2c1=O)Nc1cc(C(F)(F)F)ccc1Cl", "Escherichia coli", 4.52),
    ("CCOC(=O)c1ccc(NC(=O)Cn2nc3ccc(-c4ccc(Cl)cc4)nn3c2=O)cc1", "Escherichia coli", -1.44),
    ("COc1ccccc1-n1ccn2c(SCc3ccc(Cl)cc3)nnc2c1=O", "Escherichia coli", -9),
    ("CCc1ccc(N(Cc2ccccc2F)S(=O)(=O)c2cccn3c(CC)nnc23)cc1", "Escherichia coli", 1.03),
    ("COC(=O)c1ccc(NC(=O)Cn2nc3ccc(S(=O)(=O)C4CCCCC4)nn3c2=O)cc1", "Escherichia coli", -7.53),
    ("CCC(C)NC(=O)Cn1nc2ccc(SCc3ccc(Cl)cc3)nn2c1=O (stereo not given)", "Escherichia coli", -1.43),
    ("Cc1ccc(C)c(NC(=O)Cn2nc3c4cc(-c5ccc(C)c(C)c5)nn4ccn3c2=O)c1", "Escherichia coli", -6.72),
    ("Cc1ccccc1Oc1nc2ccccc2n2c(=O)n(CC(=O)Nc3cccc(C(F)(F)F)c3)nc12", "Escherichia coli", 2.27),
    ("CCc1ccc(NC(=O)CSc2nnc3c(=O)n(-c4ccccc4)ccn23)cc1", "Escherichia coli", -2.07),
]
